Hi! I'm sharing some IC50 results obtained with Mushroom tyrosinase (Agaricus bisporus, UniProt O42713+Q00024+C7FF04+C7FF05).

Oc1cc(O)c2c(c1)O[C@H](c1ccc(O)c(O)c1)[C@H](O)C2 [(-)-EPICATECHIN] | > 5 mM
COc1cc(/C=C/C(=O)NCCc2ccc(O)cc2)ccc1O [N-TRANS-FERULOYL TYRAMINE] | > 5 mM

Param item: `COc1cc(CO[C@@H]2O[C@H](CO)[C@@H](O)[C@H](O)[C@H]2O)cc(OC)c1OC` ; param system: Mushroom tyrosinase (Agaricus bisporus, UniProt O42713+Q00024+C7FF04+C7FF05); output IC50: > 5 mM
